System: NB12 (Neuroblastoma)
assay-overview: Bliss excess, mean over the matrix (fraction); higher = more synergy
The molecules listed here are annotated with their Bliss excess.
Lab note: record just the number, no unit beside it.

Inquiry: Any idea what Bliss excess was measured for NC1(C(=O)N[C@@H](CCO)c2ccc(Cl)cc2)CCN(c2ncnc3[nH]ccc23)CC1 [Capivasertib] + C[C@@H]1COCCN1C2=NC(=NC(=C2)C3(CC3)[S@](=N)(=O)C)C4=C5C=CNC5=NC=C4 [AZD6738] (first compound max 10 µM, 7x7, partner max 10 µM) ?
Reply text: -0.0449

Inquiry: Any idea what Bliss excess was measured for C[C@@H](Nc1cc(F)cc(F)c1)c1cc(C(=O)N(C)C)cc2c(=O)cc(N3CCOCC3)oc12 [AZD8186] + CC(=O)c1c(C)c2cnc(Nc3ccc(N4CCNCC4)cn3)nc2n(C2CCCC2)c1=O [Palbociclib] (first compound max 10 µM, 7x7, partner max 10 µM) ?
Reply text: 0.0009

Inquiry: Any idea what Bliss excess was measured for Cc1nc(Nc2ncc(C(=O)Nc3c(C)cccc3Cl)s2)cc(N2CCN(CCO)CC2)n1 [Dasatinib] + CC(=O)Nc1cccc(-n2c(=O)n(C3CC3)c(=O)c3c(Nc4ccc(I)cc4F)n(C)c(=O)c(C)c32)c1 [Trametinib] (first compound max 2 µM, 7x7, partner max 1 µM) ?
Reply text: 0.0319

Inquiry: Any idea what Bliss excess was measured for CC(=O)c1c(C)c2cnc(Nc3ccc(N4CCNCC4)cn3)nc2n(C2CCCC2)c1=O [Palbociclib] + Cn1cnc2c(F)c(Nc3ccc(Br)cc3Cl)c(C(=O)NOCCO)cc21 [Selumetinib] (first compound max 10 µM, 7x7, partner max 10 µM) ?
Reply text: 0.0177

* * *

The molecules listed here are annotated with their combination Emax.
System: NCI-H2342 (Lung Adenocarcinoma)
assay-overview: combination Emax (second highest fraction inhibited in the dose matrix, 72 h); higher = more inhibition; extreme values may be limits of the assay
Lab note: record just the number, no unit beside it.

Sample records with combination Emax:
| molecule | combination Emax |
| --- | --- |
| N#Cc1cnc(Nc2cc(NC[C@H]3CNCCO3)c(C(F)(F)F)cn2)cn1 [SRA737] + O=c1[nH]cc(F)c(=O)[nH]1 [5-Fluorouracil] (first compound max 10 µM, 7x7, partner max 20 µM) | 0.1 |
| C=CCn1c(=O)c2cnc(Nc3ccc(N4CCN(C)CC4)cc3)nc2n1-c1cccc(C(C)(C)O)n1 [AZD1775] + Nc1ccn([C@@H]2O[C@H](CO)[C@@H](O)C2(F)F)c(=O)n1 [Gemcitabine] (first compound max 1 µM, partner max 0.3 µM) | 0.784 |
| CC1(C)CCC(CN2CCN(c3ccc(C(=O)NS(=O)(=O)c4ccc(NCC5CCOCC5)c([N+](=O)[O-])c4)c(Oc4cnc5[nH]ccc5c4)c3)CC2)=C(c2ccc(Cl)cc2)C1 [Venetoclax] + C=CCn1c(=O)c2cnc(Nc3ccc(N4CCN(C)CC4)cc3)nc2n1-c1cccc(C(C)(C)O)n1 [AZD1775] (first compound max 1 µM, partner max 1 µM) | 0.268 |

With those in mind, consider the next molecule.
Inquiry: Any idea what combination Emax was measured for C=CCn1c(=O)c2cnc(Nc3ccc(N4CCN(C)CC4)cc3)nc2n1-c1cccc(C(C)(C)O)n1 [AZD1775] + C[C@@H]1COCCN1C2=NC(=NC(=C2)C3(CC3)[S@](=N)(=O)C)C4=C5C=CNC5=NC=C4 [AZD6738] (first compound max 1 µM, partner max 10 µM) ?
Reply text: 0.426

* * *

The molecules listed here are annotated with their combination Emax.
Test system: IST-MES1 (Mesothelioma)
assay-overview: combination Emax (second highest fraction inhibited in the dose matrix, 72 h); higher = more inhibition; extreme values may be limits of the assay
Lab note: record just the number, no unit beside it.

| molecule | measured-on | result |
| --- | --- | --- |
| COc1cc2ncnc(Nc3ccc(F)c(Cl)c3)c2cc1OCCCN1CCOCC1 [Gefitinib] + CC(C)n1c(=O)n(C)c2cnc3cc(F)c(-c4ccc(OCCCN5CCCCC5)nc4)cc3c21 [AZD1390] (first compound max 10 µM, 7x7, partner max 0.3 µM) | IST-MES1 (Mesothelioma) | 0.17 |

Inquiry: Any idea what combination Emax was measured for CC1(C)CCC(CN2CCN(c3ccc(C(=O)NS(=O)(=O)c4ccc(NCC5CCOCC5)c([N+](=O)[O-])c4)c(Oc4cnc5[nH]ccc5c4)c3)CC2)=C(c2ccc(Cl)cc2)C1 [Venetoclax] + C[C@@H]1COCCN1C2=NC(=NC(=C2)C3(CC3)[S@](=N)(=O)C)C4=C5C=CNC5=NC=C4 [AZD6738] (first compound max 1 µM, 7x7, partner max 10 µM) ?
Reply text: 0.396

* * *

Tested on: SK-MEL-2 (Melanoma)
assay-overview: Bliss excess, mean over the matrix (fraction); higher = more synergy
Label f if Bliss excess falls below -0.02; label t in every other case.

// below: answered compounds
| compound | measured-on | assigned-category |
| --- | --- | --- |
| O=C(c1cc(Cc2n[nH]c(=O)c3ccccc23)ccc1F)N1CCN(C(=O)C2CC2)CC1 [Olaparib] + CC1(C)CCC(CN2CCN(c3ccc(C(=O)NS(=O)(=O)c4ccc(NCC5CCOCC5)c([N+](=O)[O-])c4)c(Oc4cnc5[nH]ccc5c4)c3)CC2)=C(c2ccc(Cl)cc2)C1 [Venetoclax] (first compound max 10 µM, 7x7, partner max 1 µM) | SK-MEL-2 (Melanoma) | t |
| NC1(C(=O)N[C@@H](CCO)c2ccc(Cl)cc2)CCN(c2ncnc3[nH]ccc23)CC1 [Capivasertib] + CC(=O)c1c(C)c2cnc(Nc3ccc(N4CCNCC4)cn3)nc2n(C2CCCC2)c1=O [Palbociclib] (first compound max 10 µM, 7x7, partner max 10 µM) | SK-MEL-2 (Melanoma) | f |
| N#Cc1cnc(Nc2cc(NC[C@H]3CNCCO3)c(C(F)(F)F)cn2)cn1 [SRA737] + CCc1c2c(nc3ccc(O)cc13)-c1cc3c(c(=O)n1C2)COC(=O)[C@]3(O)CC [SN-38] (first compound max 10 µM, 7x7, partner max 0.3 µM) | SK-MEL-2 (Melanoma) | t |
| CS(=O)(=O)CCNCc1ccc(-c2ccc3ncnc(Nc4ccc(OCc5cccc(F)c5)c(Cl)c4)c3c2)o1 [Lapatinib] + C[C@@H](Oc1cc(-c2cnn(C3CCNCC3)c2)cnc1N)c1c(Cl)ccc(F)c1Cl [Crizotinib] (first compound max 10 µM, 7x7, partner max 10 µM) | SK-MEL-2 (Melanoma) | f |
| C=CCn1c(=O)c2cnc(Nc3ccc(N4CCN(C)CC4)cc3)nc2n1-c1cccc(C(C)(C)O)n1 [AZD1775] + Nc1ccn([C@@H]2O[C@H](CO)[C@@H](O)C2(F)F)c(=O)n1 [Gemcitabine] (first compound max 1 µM, partner max 0.3 µM) | SK-MEL-2 (Melanoma) | t |
| C[C@@H](c1ccc2nccn2c1)n1nnc2ncc(-c3cnn(C)c3)nc21 [Savolitinib] + CC1(C)CCC(CN2CCN(c3ccc(C(=O)NS(=O)(=O)c4ccc(NCC5CCOCC5)c([N+](=O)[O-])c4)c(Oc4cnc5[nH]ccc5c4)c3)CC2)=C(c2ccc(Cl)cc2)C1 [Venetoclax] (first compound max 1 µM, 7x7, partner max 1 µM) | SK-MEL-2 (Melanoma) | f |
| Cc1c2c(nn1C)CSCc1cc(n(C)n1)CSc1cc(c3ccccc3c1)OCCCc1c(C(=O)O)n(C)c3c-2c(Cl)ccc13 [AZD5991] + CC(=O)O[C@H]1C(=O)[C@@]2(C)[C@H]([C@H](OC(=O)c3ccccc3)[C@]3(O)C[C@H](OC(=O)[C@H](O)[C@@H](NC(=O)c4ccccc4)c4ccccc4)C(C)=C1C3(C)C)[C@]1(OC(C)=O)CO[C@@H]1C[C@@H]2O [Paclitaxel] (first compound max 1 µM, 7x7, partner max 3 µM) | SK-MEL-2 (Melanoma) | f |

Inquiry: API: above_or_equal(metric=Bliss excess, cutoff=-0.02) for item O=C(c1cc(Cc2n[nH]c(=O)c3ccccc23)ccc1F)N1CCN(C(=O)C2CC2)CC1 [Olaparib] + Cc1c2c(nn1C)CSCc1cc(n(C)n1)CSc1cc(c3ccccc3c1)OCCCc1c(C(=O)O)n(C)c3c-2c(Cl)ccc13 [AZD5991] (first compound max 10 µM, 7x7, partner max 1 µM)
Reply text: t

* * *

Tested on: SHP-77 (Small Cell Lung Carcinoma)
assay-overview: Bliss excess, mean over the matrix (fraction); higher = more synergy
Label NOT MET if Bliss excess falls below 0.01; label MET in every other case.

Inquiry: API: above_or_equal(metric=Bliss excess, cutoff=0.01) for item CS(=O)(=O)CCNCc1ccc(-c2ccc3ncnc(Nc4ccc(OCc5cccc(F)c5)c(Cl)c4)c3c2)o1 [Lapatinib] + C[C@@H](Oc1cc(-c2cnn(C3CCNCC3)c2)cnc1N)c1c(Cl)ccc(F)c1Cl [Crizotinib] (first compound max 10 µM, 7x7, partner max 10 µM)
Reply text: NOT MET

Inquiry: API: above_or_equal(metric=Bliss excess, cutoff=0.01) for item COc1cccc(OCCCN)c1-c1cc(Nc2cnc(C#N)cn2)n[nH]1 [Prexasertib] + Cc1cc2ncnn2cc1Nc1ncc2c(n1)n(C1CCOCC1)c(=O)n2C [AZD7648] (first compound max 1 µM, 7x7, partner max 10 µM)
Reply text: NOT MET

Inquiry: API: above_or_equal(metric=Bliss excess, cutoff=0.01) for item NC1(C(=O)N[C@@H](CCO)c2ccc(Cl)cc2)CCN(c2ncnc3[nH]ccc23)CC1 [Capivasertib] + CC(=O)c1c(C)c2cnc(Nc3ccc(N4CCNCC4)cn3)nc2n(C2CCCC2)c1=O [Palbociclib] (first compound max 10 µM, 7x7, partner max 10 µM)
Reply text: NOT MET

Inquiry: API: above_or_equal(metric=Bliss excess, cutoff=0.01) for item CN(CCO)CC[C@H](CSc1ccccc1)Nc1ccc(S(=O)(=O)NC(=O)c2ccc(N3CCC([C@@H](O)c4ccccc4-c4ccc(Cl)cc4)CC3)cc2)cc1S(=O)(=O)C(F)(F)F [AZD4320] + C=CCn1c(=O)c2cnc(Nc3ccc(N4CCN(C)CC4)cc3)nc2n1-c1cccc(C(C)(C)O)n1 [AZD1775] (first compound max 1 µM, partner max 1 µM)
Reply text: MET

Inquiry: API: above_or_equal(metric=Bliss excess, cutoff=0.01) for item CC(=O)c1c(C)c2cnc(Nc3ccc(N4CCNCC4)cn3)nc2n(C2CCCC2)c1=O [Palbociclib] + Cc1c2c(nn1C)CSCc1cc(n(C)n1)CSc1cc(c3ccccc3c1)OCCCc1c(C(=O)O)n(C)c3c-2c(Cl)ccc13 [AZD5991] (first compound max 10 µM, 7x7, partner max 1 µM)
Reply text: NOT MET

Inquiry: API: above_or_equal(metric=Bliss excess, cutoff=0.01) for item Cc1nc(-c2cn3c(n2)-c2ccc(-c4cnn(C(C)(C)C(N)=O)c4)cc2OCC3)n(C(C)C)n1 [Taselisib] + O=C(Nc1ccc2[nH]nc(-c3ccncc3)c2c1)[C@@H]1CCN(CC(=O)N2CCN(c3ccc(-c4ncccn4)cc3)CC2)C1 [SCH772984] (first compound max 10 µM, 7x7, partner max 5 µM)
Reply text: NOT MET

Inquiry: API: above_or_equal(metric=Bliss excess, cutoff=0.01) for item Cc1c2c(nn1C)CSCc1cc(n(C)n1)CSc1cc(c3ccccc3c1)OCCCc1c(C(=O)O)n(C)c3c-2c(Cl)ccc13 [AZD5991] + Cn1cnc2c(F)c(Nc3ccc(Br)cc3Cl)c(C(=O)NOCCO)cc21 [Selumetinib] (first compound max 1 µM, 7x7, partner max 3 µM)
Reply text: MET

Inquiry: API: above_or_equal(metric=Bliss excess, cutoff=0.01) for item C[C@@H]1COCCN1c1cc(C2([S@](C)(=N)=O)CC2)nc(-c2ccnc3[nH]ccc23)n1 [AZD6738] + O=C(c1cc(Cc2n[nH]c(=O)c3ccccc23)ccc1F)N1CCN(C(=O)C2CC2)CC1 [Olaparib] (first compound max 10 µM, 7x7, partner max 10 µM)
Reply text: MET

Inquiry: API: above_or_equal(metric=Bliss excess, cutoff=0.01) for item Cc1cc2ncnn2cc1Nc1ncc2c(n1)n(C1CCOCC1)c(=O)n2C [AZD7648] + O=C(c1cc(Cc2n[nH]c(=O)c3ccccc23)ccc1F)N1CCN(C(=O)C2CC2)CC1 [Olaparib] (first compound max 10 µM, 7x7, partner max 10 µM)
Reply text: NOT MET

Inquiry: API: above_or_equal(metric=Bliss excess, cutoff=0.01) for item COc1nnc2ccc(N3CCC(c4ccc(OCCN5CCN(C)C(=O)[C@H]5C)cc4)CC3)nn12 [AZD5153] + Cc1c2c(nn1C)CSCc1cc(n(C)n1)CSc1cc(c3ccccc3c1)OCCCc1c(C(=O)O)n(C)c3c-2c(Cl)ccc13 [AZD5991] (first compound max 1 µM, 7x7, partner max 1 µM)
Reply text: MET

Inquiry: API: above_or_equal(metric=Bliss excess, cutoff=0.01) for item O=C(c1cc(Cc2n[nH]c(=O)c3ccccc23)ccc1F)N1CCN(C(=O)C2CC2)CC1 [Olaparib] + COc1nnc2ccc(N3CCC(c4ccc(OCCN5CCN(C)C(=O)[C@H]5C)cc4)CC3)nn12 [AZD5153] (first compound max 10 µM, 7x7, partner max 1 µM)
Reply text: MET

Inquiry: API: above_or_equal(metric=Bliss excess, cutoff=0.01) for item CN(CCO)CC[C@H](CSc1ccccc1)Nc1ccc(S(=O)(=O)NC(=O)c2ccc(N3CCC([C@@H](O)c4ccccc4-c4ccc(Cl)cc4)CC3)cc2)cc1S(=O)(=O)C(F)(F)F [AZD4320] + CS(=O)(=O)CCNCc1ccc(-c2ccc3ncnc(Nc4ccc(OCc5cccc(F)c5)c(Cl)c4)c3c2)o1 [Lapatinib] (first compound max 1 µM, 7x7, partner max 10 µM)
Reply text: MET

Inquiry: API: above_or_equal(metric=Bliss excess, cutoff=0.01) for item C=CCn1c(=O)c2cnc(Nc3ccc(N4CCN(C)CC4)cc3)nc2n1-c1cccc(C(C)(C)O)n1 [AZD1775] + CCc1c2c(nc3ccc(O)cc13)-c1cc3c(c(=O)n1C2)COC(=O)[C@]3(O)CC [SN-38] (first compound max 1 µM, partner max 0.3 µM)
Reply text: NOT MET
